molecular target: recombinant full-length human GSK3β (Homo sapiens); construct: recombinant full-length human GSK3β (Upstate); purchased Upstate; assay: Luciferase-coupled cell-free GSK3β kinase assay; type: biochemical; details: Table 2
Sequence (P49841 whole entry): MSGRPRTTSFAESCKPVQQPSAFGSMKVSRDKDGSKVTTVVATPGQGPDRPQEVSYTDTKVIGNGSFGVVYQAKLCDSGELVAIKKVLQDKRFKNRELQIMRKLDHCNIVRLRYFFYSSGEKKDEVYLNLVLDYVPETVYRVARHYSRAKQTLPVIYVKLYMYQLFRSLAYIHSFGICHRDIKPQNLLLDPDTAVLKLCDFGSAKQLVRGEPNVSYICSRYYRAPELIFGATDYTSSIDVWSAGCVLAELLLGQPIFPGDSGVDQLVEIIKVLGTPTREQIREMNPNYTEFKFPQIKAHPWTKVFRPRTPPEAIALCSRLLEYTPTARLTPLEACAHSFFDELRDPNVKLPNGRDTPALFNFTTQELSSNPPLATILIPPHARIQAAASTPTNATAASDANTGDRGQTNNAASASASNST
pIC50: −log10 of the molar value.
Readout Label: pIC50

Example entries and their recorded answers appear below.
>>> data_value("C[C@H]1COc2c(NCCCNC(=O)C34CC5CC(CC(C5)C3)C4)c(F)c(N)c3c(=O)c(C(=O)O)cn1c23 [compound 80]")
"> 7.00"
>>> data_value("CC1(C)Cn2cc(C(=O)O)c(=O)c3c(N)c(F)c(NCCCn4cnc5ccccc54)c(c32)O1 [compound 56]")
"6.30 to 7.00"
>>> data_value("Nc1c(F)c(NCCCn2ccnc2)c2c3c1c(=O)c(C(=O)O)cn3CCO2 [compound 9]")
"6.00 to 6.30"
>>> data_value("C[C@H]1COc2c(NCCCc3ccc(F)cc3)c(F)c(N)c3c(=O)c(C(=O)O)cn1c23 [compound 72]")
"> 7.00"
>>> data_value("C[C@H]1COc2c(NCCOc3ccccc3)c(F)c(N)c3c(=O)c(C(=O)O)cn1c23 [Example 99]")
"> 7.00"

Please give pIC50 for each item listed below.
1. COc1c(NCCNc2cccc3ccccc23)c(F)c(N)c2c(=O)ccn(C3CC3)c12 [compound 66]
2. CC(C)OCCCNc1c(F)c(N)c2c(=O)c(C(=O)O)cn3c2c1OC[C@@H]3C [compound 21]
3. CC1(C)COc2c(NCCCn3cnc4ccccc43)c(F)c(N)c3c(=O)c(C(=O)O)cn1c23 [compound 37]
4. CC(C)[C@H]1COc2c(NCCNc3ccccn3)c(F)c(N)c3c(=O)c(C(=O)O)cn1c23 [compound 60]
5. CC1COc2c(NCCNc3cccc(F)n3)c(F)c(N)c3c(=O)c(C(=O)O)cn1c23 (stereo not shown) [compound 14]
6. COc1c(NCCNc2ccccn2)c(F)c(NC(=O)C(F)(F)F)c2c(=O)c(C#N)cn(C3CC3)c12 [Example 141]
7. COc1ccc(CCCNc2c(F)c(N)c3c(=O)c(C(=O)O)cn4c3c2OC[C@@H]4C)cc1 [compound 73]
8. C[C@@H]1COc2c(NCCNc3ccccn3)c(F)c(N)c3c(=O)c(C(=O)O)cn1c23 [compound 31]

1: > 7.00; 2: 6.30 to 7.00; 3: > 7.00; 4: > 7.00; 5: > 7.00; 6: > 7.00; 7: > 7.00; 8: 6.30 to 7.00

Dear colleague, could you send me pIC50 for each of the items below? Thanks.
1. COc1c(NCCNc2ccccn2)c(F)c(N)c2c(=O)c(C(=O)O)cn(C)c12 [Example 129]
2. C[C@H]1COc2c(NCCC3CCCCC3)c(F)c(N)c3c(=O)c(C(=O)O)cn1c23 [Example 104]

1: 6.30 to 7.00; 2: > 7.00

Report pIC50 for CC1(C)COc2c(NCCNc3cccc4ccccc34)c(F)c(N)c3c(=O)c(C(=O)O)cn1c23 [compound 36] please. > 7.00

---

assay: Animal Study 2 (oral glucose tolerance test); design: species or system Crlj:CD1 (ICR) mice; details: Mus musculus; Table 2; 300 mg/kg oral, ICR mice; plasma glucose 0.5 and 1 hr after glucose load vs vehicle; read-out: In vivo studies 300 mg/kg (oral glucose tolerance test, % decrease)
Assignment: determine reported inhibition in vivo at 300 mg/kg for the given compounds.

Here are 6 compounds. What values of inhibition in vivo at 300 mg/kg were reported for them?
1. C[C@H]1COc2c(NCCOc3ccc(F)cc3)c(F)c(N)c3c(=O)c(C(=O)O)cn1c23
2. C[C@H]1COc2c(NCCNc3ccccn3)c(F)c(N)c3c(=O)c(C(N)=O)cn1c23
3. CC1(C)CCOc2c(NCCNc3ccccn3)c(F)c(N)c3c(=O)c(C(=O)O)cn1c23
4. CC1(C)COc2c(NCCCn3ccnc3)c(F)c(N)c3c(=O)c(C(=O)O)cn1c23
5. C[C@H]1COc2c(NCCCc3ccccn3)c(F)c(N)c3c(=O)c(C#N)cn1c23
6. C[C@H]1COc2c(NCCS(=O)(=O)N3CCCCC3)c(F)c(N)c3c(=O)c(C(=O)O)cn1c23

10 to 20%
10 to 20%
> 20%
> 20%
< 5%
< 5%

Report inhibition in vivo at 300 mg/kg for every entry below.
1. C[C@H]1COc2c(NCCCc3ccc(F)cc3)c(F)c(N)c3c(=O)c(C(=O)O)cn1c23
2. C[C@H]1COc2c(NCCNc3ccccn3)c(F)c(N)c3c(=O)c(C(=O)O)cn1c23
3. C[C@H]1COc2c(NCCCc3ccccn3)c(F)c(N)c3c(=O)c(C(=O)O)cn1c23
4. Nc1c(F)c(NCCNc2ccccn2)cc2c1c(=O)c(C(=O)O)cn2CCc1ccccc1

["> 20%", "10 to 20%", "> 20%", "< 5%"]

---

system: S. aureus Smith; experiment: Antibacterial activity (MIC), S. aureus; format: cell-based; settings: Staphylococcus aureus, Table 2; S. aureus Smith; read-out: Antimicrobial MIC [μM] S. aureus
Readout Label: MIC

Sample records with MIC:
>>> data_value("Nc1c(F)c(NCCNc2ccccn2)c(F)c2c1c(=O)cc(C(=O)O)n2C1CC1 [Example 136]")
"> 50 µM"
>>> data_value("CC1(C)COc2c(NCCNc3ccccn3)c(F)c(N)c3c(=O)c(C(=O)O)cn(c23)C1 [compound 24]")
"0.5 to 10 µM"
>>> data_value("Nc1c(F)c(NCCNc2ccccn2)c2c3c1c(=O)c(C(=O)O)cn3[C@@H](Cc1ccccc1)CO2 [Example 120]")
"10 to 50 µM"

Turning now to a further record.
Reported MIC, molecule CC1COc2c(NCCNc3nc(F)c(F)cc3F)c(F)c(N)c3c(=O)c(C(=O)O)cn1c23 (stereo not shown) [compound 13] : ____ 0.5 to 10 µM

---

molecular target: recombinant full-length human GSK3β (Homo sapiens); construct: recombinant full-length human GSK3β (Upstate); purchased Upstate; experiment: Luciferase-coupled cell-free GSK3β kinase assay; format: biochemical; conditions: Table 1
pIC50: −log10 of the molar value.
Readout Label: pIC50

Sample records with pIC50:
>>> data_value("Nc1c(F)c(NCCc2ccc(Cl)cc2)c(F)c2c1c(=O)ccn2C1CC1 [compound 9]")
"6.00 to 6.30"
>>> data_value("CC(C)OCCCNc1c(F)c(N)c2c(=O)ccn(C3CCCC3)c2c1F [compound 75]")
"6.30 to 7.00"
>>> data_value("Nc1c(F)c(NCCc2ccc(F)cc2)c(F)c2c1c(=O)ccn2C1CC1 [compound 10]")
"6.00 to 6.30"
>>> data_value("CC1COc2c(NCCNc3ccccn3)c(F)c(N)c3c(=O)c(C(=O)O)cn1c23 (stereo not drawn) [compound 90]")
"> 7.00"
>>> data_value("CC1COc2c(NCCCn3ccnc3)c(F)c(N)c3c(=O)c(C(=O)O)cn1c23 (stereo not drawn) [compound 89]")
"> 7.00"
>>> data_value("COc1c(NCCc2cccnc2)c(F)c(N)c2c(=O)c(C(=O)O)cn(C3CC3)c12 [compound 85]")
"< 6.00"
>>> data_value("Nc1c(F)c(NCCc2ccccc2)c(F)c2c1c(=O)c(C(=O)O)cn2C1CC1 [compound 1]")
"6.30 to 7.00"
>>> data_value("Nc1c(F)c(NCCNc2cccc3ccccc23)c(F)c2c1c(=O)c(C(=O)O)cn2C1CC1 [compound 43]")
"> 7.00"

Here are 4 compounds. What values of pIC50 were reported for them?
1. Nc1c(F)c(NCCNc2ccccn2)c(F)c2c1c(=O)ccn2C1CCCC1 [compound 76]
2. Nc1c(F)c(NCCCn2ccnc2)c(F)c2c1c(=O)ccn2CCc1ccccc1 [compound 62]
3. Nc1c(F)c(NCCCc2ccccc2)c(F)c2c1c(=O)c(C(=O)O)cn2CCCn1ccnc1 [compound 65]
4. Nc1c(F)c(NCCNC(=O)c2ccccn2)c(F)c2c1c(=O)c(C(=O)O)cn2C1CC1 [compound 38]

> 7.00
6.30 to 7.00
6.30 to 7.00
6.00 to 6.30

---

Task for the reader: assign each of the following compounds its reported MIC.
tested on: S. aureus Smith; assay: Antibacterial activity (MIC), S. aureus; assay type: cell-based; conditions: Staphylococcus aureus, Table 1; read-out: Antibacterial MIC (μM) S. aureus Smith

>>> data_value("Nc1c(F)c(NCCNc2ccccn2)c(F)c2c1c(=O)ccn2CCc1ccccc1 [compound 63]")
"10 to 50 µM"
>>> data_value("COc1c(NCCCn2ccnc2)c(F)c(N)c2c(=O)c(C(=O)O)cn(C3CC3)c12 [compound 69]")
"0.5 to 10 µM"
>>> data_value("Nc1c(F)c(NCCc2ccc(F)cc2)c(F)c2c1c(=O)c(C(=O)O)cn2C1CC1 [compound 5]")
"< 0.5 µM"

Field: next compound
Look up MIC for this compound: CC1COc2c(NCCCc3ccccc3)c(F)c(N)c3c(=O)c(C(=O)O)cn1c23 (stereo not shown) [compound 81] 0.5 to 10 µM

# credit: patent US8063221B2
